Test system: Streptococcus pneumoniae
measurement_description: Antibacterial activity against Streptococcus pneumoniae after 24 hrs by CLSI method
Format: functional

molecule: O=C1COc2ccc(CNC3CCN(CCN4C(=O)COc5ccc(C(=O)O)cc54)CC3)nc2N1
MIC: > 13.5 µM
//
molecule: O=C1COc2ccc(CNC3CCN(CCN4C(=O)COc5ccc(-n6cnnn6)cc54)CC3)nc2N1
MIC: > 10.9 µM
//
molecule: CC(O)c1ccc2c(c1)N(CCN1CCC(NCc3ccc4c(n3)NC(=O)CO4)CC1)C(=O)CO2 (stereo not drawn)
MIC: > 16.6 µM

---

MIC values, listed per item
System: Moraxella catarrhalis
measurement_description: Antibacterial activity against Moraxella catarrhalis after 24 hrs by CLSI method
Format: functional

compound: O=C1COc2ccc(CNC3CCN(CCN4C(=O)COc5ccc(C(=O)O)cc54)CC3)nc2N1
MIC: > 13.5 µM
//
compound: O=C1COc2ccc(CNC3CCN(CCN4C(=O)COc5ccc(-n6cnnn6)cc54)CC3)nc2N1
MIC: > 10.9 µM
//
compound: O=C1COc2ccc(CNC3CCN(CCN4C(=O)COc5ccc(Br)cc54)CC3)nc2N1
MIC: < 0.015 µM
//
compound: CC(O)c1ccc2c(c1)N(CCN1CCC(NCc3ccc4c(n3)NC(=O)CO4)CC1)C(=O)CO2 (stereo not given)
MIC: > 16.6 µM
//
compound: CN(C)S(=O)(=O)c1ccc2c(c1)N(CCN1CCC(NCc3ccc4c(n3)NC(=O)CO4)CC1)C(=O)CO2
MIC: > 14.6 µM

---

Tested on: Klebsiella pneumoniae
measurement_description: Antibacterial activity against Klebsiella pneumoniae after 24 hrs by CLSI method
Assay type: functional
MIC values, listed per item

smiles_input: O=C1COc2ccc(CNC3CCN(CCN4C(=O)COc5ccc(NC(=O)C(F)(F)F)cc54)CC3)nc2N1
value_modifier: >
MIC [µM]: 16.1

smiles_input: O=C1COc2ccc(CNC3CCN(CCN4C(=O)COc5ccc(-c6ccco6)cc54)CC3)nc2N1
value_modifier: =
MIC [µM]: 15.9

smiles_input: O=C1COc2ccc(CNC3CCN(CCN4C(=O)COc5ccc(O)cc54)CC3)nc2N1
value_modifier: >
MIC [µM]: 17.7

smiles_input: O=C1COc2ccc(CNC3CCN(CCN4C(=O)COc5ccc(C(=O)O)cc54)CC3)nc2N1
value_modifier: >
MIC [µM]: 13.5

smiles_input: O=C1COc2ccc(CNC3CCN(CCN4C(=O)COc5ccc(Br)cc54)CC3)nc2N1
value_modifier: =
MIC [µM]: 3.9

smiles_input: COC(=O)c1ccc2c(c1)N(CCN1CCC(NCc3ccc4c(n3)NC(=O)CO4)CC1)C(=O)CO2
value_modifier: =
MIC [µM]: 16.1

smiles_input: O=C1COc2ccc(CNC3CCN(CCN4C(=O)COc5ccc(-n6cnnn6)cc54)CC3)nc2N1
value_modifier: >
MIC [µM]: 10.9
